Tested on: SK-MEL-2 melanoma
method_notes: NCI tumour cell line growth inhibition, 48 h
Each entry below carries its recorded log10(TGI).
Would you kindly interpret these values as log10 of TGI expressed in µM?

Give a short answer stating reported log10(TGI) for COC1=C(OC)C(=O)C(Cc2c(-c3ccccc3)nc3sc(Cl)cn23)=C(C)C1=O .
1.56

---

Test system: NCI-H460 lung
Respond only with the outcome that fits, drawn from active, inactive

compound: COc1cc2c(cc1OC)C(Sc1ccc(Cl)cc1)c1c(nc(N)c(C#N)c1N)O2 (configuration not stated)
classification: inactive
//
compound: COc1cc(C(=O)Nc2ccc(-c3nc4ccccc4[nH]3)cc2)cc(OC)c1OC
classification: inactive
//
compound: COc1ccc2c(c1)CCC1C2CCC2(C)C(NC(=O)CCCCC3CCSS3)CCC12 (configuration not stated)
classification: inactive

Recorded test call requested for COc1cc(C(=O)/C=C/c2c(C)n([O-])c3ccc(Cl)cc3[n+]2=O)cc(OC)c1OC
inactive

Each compound tested received a call. Report the one for Clc1cc(Cl)cc(Nc2ccc3c(OCCCN4CCOCC4)cccc3n2)c1 .
inactive

Tell me the assay call for CN(Cc1cnc2nc(N)nc(N)c2n1)c1c(Cl)cc(C(=O)NC(CCC(=O)O)C(=O)O)cc1Br (configuration not stated) please.
active

---

Consider the following GI50 values measured on MDA-MB-435.

compound: COc1cc(-c2ccc[nH]2)[nH]c1/C=C1\N=C(C)C(C(=O)NC(C)C)=C1C
observed_measurement: 4.51 µM
//
compound: Nc1c([N+](=O)[O-])ncn1C1OC(CO)C(O)C1O (stereo not drawn)
observed_measurement: > 100 µM
//
compound: O=[N+]([O-])/C(=C/C=C/c1ccccc1)c1ccccc1
observed_measurement: 2.12 µM
//
compound: c1ccc(-c2nc3ccccc3[nH]2)c(OCCCCCOc2ccccc2-c2nc3ccccc3[nH]2)c1
observed_measurement: 11.3 µM
//
compound: COc1cc(C(=O)Nc2ccc(-c3nc4ccccc4[nH]3)cc2)cc(OC)c1OC
observed_measurement: 13.5 µM
//
compound: Nc1nc2c(ncn2C2OC(CO)C(O)C2O)c(=O)[nH]1 (stereo not drawn)
observed_measurement: > 100 µM
//
compound: Cc1nc2sc(C(=O)Nc3cccc(Cl)c3)c(N)c2cc1C(O)c1ccccc1 (stereo not drawn)
observed_measurement: 0.203 µM
//
compound: COc1cc(/C=C/C(=O)/C=C/c2ccc(-n3ccnc3)cc2)ccc1O
observed_measurement: 2.21 µM

Give MDA-MB-435 GI50 for the following compound: C=C(c1ccc(C(=O)NCCCn2ccnc2)cc1)c1cc2c(cc1C)C(C)(C)CCC2(C)C
0.0734 µM

Provide measured GI50 on MDA-MB-435 for OCCN1CCCN(CCCN2c3ccccc3Sc3ccc(C(F)(F)F)cc32)CC1 please.
1.67 µM

// fetch GI50; item: Cn1cc(C2=C(c3cccc([N+](=O)[O-])c3)C(=O)NC2=O)c2ccccc21 ; system: MDA-MB-435
7.46 µM

Recall the reported GI50 of CN(C)CC(=O)N1CCc2c([nH]c3ccccc23)C1c1cccnc1 (stereo not drawn) on MDA-MB-435 and write it down.
> 100 µM

Provide the reported GI50 (system: MDA-MB-435) for O=C(/C=C/c1ccccn1)c1ccccc1
7.85 µM
